The reported numbers originate from PubChem BioAssay AID1159580.

Recorded normalized growth for the following molecules
test: chemical genetic growth profiling, strain panel (AID 1159580);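 also: tested at 20 µM; growth read once vehicle control cultures reached saturation at 30 °C; 1 = growth at the plate median or of vehicle wells; lower values mean less growth of the strain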; settings: S. cerevisiae deletion strains, growth OD, locus YGL240W, strain doc1, active compounds read low
Out of some 5,500 compounds screened, about 2,000 (36%) were called active. Inconclusive results (about 18%) are left out. The list shows a part of the results.
The answer should be written as a number, with no unit following it.

MOLECULE | OBSERVED PROPERTY | READING
OC[C@H]1O[C@@H](Oc2ccc(O)cc2)[C@H](O)[C@@H](O)[C@@H]1O | normalized growth | 1.02
COc1ccc(CC(=O)c2ccc(O)cc2O)cc1 | normalized growth | 0.925
CN1CCC[C@H]1c1cccnc1 | normalized growth | 1
COC(=O)CC1C(C)(C(=O)c2ccoc2)CC2OCC34C(CC(=O)OC)C5(C)CC36OC3(C)OC1(C(OC(C)=O)C6(OC(C)=O)C5OC(=O)C(C)C)C24O3 (stereo not given) | normalized growth | 0.988
O=C(CCc1ccc(O)cc1)c1c(O)cc(O)cc1O | normalized growth | 1.01
O=c1c(O)cccc2cc(O)c(O)c(O)c12 | normalized growth | 0.968
COc1ccc([C@@H](C)C(=O)c2ccc(O)cc2O)cc1 | normalized growth | 0.991
COc1cc(O)c2c(c1)C(=O)c1cc(C)cc(O)c1C2=O | normalized growth | 0.98
COC(=O)C[C@H]1C(C)(C)[C@@H](OC(C)=O)[C@@H]2CC3=C4CC(=O)O[C@@H](c5ccoc5)[C@]4(C)CCC3[C@@]1(C)C2=O (stereo not given in full) | normalized growth | 1

Query molecule follows.
### Prompt Entry COc1cc(O)ccc1C(C)=O : reported normalized growth = ?
### Response 1.01

* * *

assay: chemical genetic growth profiling, strain panel (AID 1159580);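 also: tested at 20 µM; growth read once vehicle control cultures reached saturation at 30 °C; 1 = growth at the plate median or of vehicle wells; lower values mean less growth of the strain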; conditions: S. cerevisiae deletion strains, growth OD, locus YJR075W, strain HOC1
The campaign covered roughly 5,500 compounds. About 2,000 (36%) were called active. About 18% were inconclusive and are not listed. Cut-off read from the data, not from the text of the source: active = normalized growth mostly below about 0.91 (no sharp cut-off); inconclusive = no clear call, values can overlap the other calls; inactive = mostly above about 0.92. The list shows a part of the results.
Output constraint: value belongs to active, inactive

COMPOUND | LABEL VALUE
O=C1CSC(c2cccnc2)N1c1ccc(C2CCCCC2)cc1 (stereo not given) | inactive
O=[N+]([O-])c1cc(C(F)(F)F)cc([N+](=O)[O-])c1Oc1ccc(Cl)c(Cl)c1 | active
CC(C)N1C(=O)c2ccccc2NS1(=O)=O | inactive
CC(NC(C)(C)C)C(=O)c1cccc(Cl)c1 (stereo not given) | inactive
FC(F)(F)c1cc(-c2ccc(Cl)cc2)nc2cc(C3CC3)nn12 | inactive
COc1cc(Cc2cnc(N)nc2N)cc(OC)c1OC | inactive
COc1cc2c(cc1OC)C(C)NCC2 (stereo not given) | inactive
CNCCC(Oc1ccccc1OC)c1ccccc1 (stereo not given) | inactive
C=C[C@H]1CN2CC[C@H]1C[C@H]2[C@H](O)c1ccnc2ccccc12 | inactive
Cc1ccc2c(c1)C(N1CCN(C)CC1)=Nc1cccnc1N2 | inactive

Below: the item to evaluate.
### Prompt Outcome? CC(C)(C)c1cc(C(=O)NN)n[nH]1
### Response inactive

* * *

Recorded normalized growth for the following molecules
assay: chemical genetic growth profiling, strain panel (AID 1159580);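 also: tested at 20 µM; growth read once vehicle control cultures reached saturation at 30 °C; 1 = growth at the plate median or of vehicle wells; lower values mean less growth of the strain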; details: S. cerevisiae deletion strains, growth OD, locus YNL175C, strain NOP13, active compounds read low
The whole screen tested about 5,500 compounds, of which about 2,000 (36%) were called active. Roughly 18% stayed inconclusive and do not appear here. The list shows a part of the results.

MOLECULE | normalized growth
O=c1[nH]ccc2c(O)cccc12 | 1.01 (inactive)
COC[C@H]1OC(=O)c2coc3c2[C@@]1(C)C1=C(C3=O)C2CCC(=O)[C@@]2(C)C[C@H]1OC(C)=O (some centres not stated) | 1 (inactive)

### Prompt Entry CC(C)Cn1c(=O)n(C)c(=O)c2[nH]cnc21 : reported normalized growth = ?
### Response 0.999 (inactive)

### Prompt Entry NC(Cc1ccc(Cl)cc1)C(=O)O (configuration not stated) : reported normalized growth = ?
### Response 0.986 (inactive)

### Prompt Entry CC1=C(C)C(=O)C(CCCCC#CCCCC#CCO)=C(C)C1=O : reported normalized growth = ?
### Response 1 (inactive)

### Prompt Entry C[N+]1(C)C2CCC1CC(OC(=O)C(CO)c1ccccc1)C2 (configuration not stated) : reported normalized growth = ?
### Response 1.01 (inactive)

### Prompt Entry COc1cc2ncnc(Nc3cccc(Cl)c3)c2cc1OC : reported normalized growth = ?
### Response 0.954 (inactive)

### Prompt Entry CCCCC/C=C\CC(O)/C=C/c1cccc(CC(O)CCCCO)n1 (configuration not stated) : reported normalized growth = ?
### Response 0.985 (inactive)

### Prompt Entry O=C(O)c1cc(=O)cc(C(=O)O)[nH]1 : reported normalized growth = ?
### Response 0.999 (inactive)

### Prompt Entry C[N+](C)(C)CC#CCOC(=O)Nc1cccc(Cl)c1 : reported normalized growth = ?
### Response 0.984 (inactive)

### Prompt Entry O=C(O)CC[N+](=O)[O-] : reported normalized growth = ?
### Response 0.992 (inactive)

### Prompt Entry NC(=O)CN1CC(O)CC1=O (configuration not stated) : reported normalized growth = ?
### Response 1.01 (inactive)
